Measured IC50 accompanies every entry in the list below.
System: Cullin-3 (CUL3) neddylation
Assay: AlphaLISA assay for Cullin-3 (CUL3) neddylation in TF 1 cells
Type: cell-based
Conditions: Homo sapiens, TF-1, 3 h, 3 hours treatment

(Q) Param readout = IC50; param system = Cullin-3 (CUL3) neddylation; param query = CCN1C(=O)[C@@H](NC(=O)c2cccc(C(F)(F)F)c2)[C@@H](C2CC2)c2c(C(=O)N3CS(=O)(=O)C[C@@H]3C#N)nn(C3CCOCC3)c21 [Compound I-560] ; response: value
(A) ≤ 100 nM

(Q) Param readout = IC50; param system = Cullin-3 (CUL3) neddylation; param query = C=C(CO)C(=O)NCc1nn(-c2ccccc2)c2c1[C@@H](c1ccc(F)cc1)[C@H](NC(=O)c1cccc(C(F)(F)F)c1)C(=O)N2CC [Compound I-106] ; response: value
(A) 100 to 1000 nM

(Q) Param readout = IC50; param system = Cullin-3 (CUL3) neddylation; param query = CCN1C(=O)[C@@H](NC(=O)c2cccc3ncoc23)[C@@H](C2CC2)c2c(C(=O)N3[C@H](C#N)C[C@H]4C[C@H]43)nn(C3CCOCC3)c21 [Compound I-565] ; response: value
(A) ≤ 100 nM

(Q) Param readout = IC50; param system = Cullin-3 (CUL3) neddylation; param query = CCN1C(=O)[C@@H](NC(=O)c2cccc(C(F)(F)F)c2)[C@@H](C2CC2)c2c(C(=O)N3C[C@H](F)C[C@H]3C#N)nn(C3CCOCC3)c21 [Compound I-372] ; response: value
(A) ≤ 100 nM

(Q) Param readout = IC50; param system = Cullin-3 (CUL3) neddylation; param query = CCN1C(=O)[C@@H](NC(=O)c2ccc3ncoc3c2)[C@@H](C2CC2)c2c(C(=O)N3[C@H](C#N)C[C@H]4C[C@H]43)nn(C3CCOCC3)c21 [Compound I-564] ; response: value
(A) > 1000 nM

(Q) Param readout = IC50; param system = Cullin-3 (CUL3) neddylation; param query = CCN1C(=O)[C@@H](NC(=O)c2cccc(C(F)(F)F)c2)[C@@H](c2ccc(F)cc2)c2c(CN(C)C#N)nn(-c3ccccc3)c21 [Compound I-92] ; response: value
(A) 100 to 1000 nM

(Q) Param readout = IC50; param system = Cullin-3 (CUL3) neddylation; param query = CCN1C(=O)[C@@H](NC(=O)c2cccc(C(F)(F)F)c2)[C@@H](c2ccc(F)cc2)c2c(CNC(=O)CC#N)nn(-c3ccccc3)c21 (racemic) [Compound I-147] ; response: value
(A) 100 to 1000 nM
